B1: mRNA-splicing (parent)
chain: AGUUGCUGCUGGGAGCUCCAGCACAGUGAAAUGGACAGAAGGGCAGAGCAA

variants of: B1; test: exon inclusion enrichment index; higher = more inclusion; WT1 exon 5 minigene, HEK293

Alteration	exon inclusion enrichment index
G5C C6G U7C U10C U17A C18G	4.2
G5C C6U G8C C9A U10A	1.21
G5A C6G U7G C9A A20C G21U	0.00104
G2C U3C G5U G8U C9U	0.29
G5A C6U U7A G8U C9A A31G U32G	0.0411
C6A U7A C9A U10A C24U	0.161
G5U U7G G8C C9U	1.58
G5C C6U G8C C9U U10C G13A A14C	2.59
